Test system: COLO 205 colon
Assay: NCI tumour cell line growth inhibition, 48 h
MEASURED_QUANTITY: TGI

COMPOUND: CCN1C(=O)N(CC)C2C1NN=c1s/c(=C3\C(=O)Nc4ccccc43)c(=O)n12 (stereo unspecified)
TGI: > 57.5 µM
--
COMPOUND: Cc1cccc(NC(=O)c2c(N)[n+]([O-])c3ccccc3[n+]2[O-])c1
TGI: 27.2 µM
--
COMPOUND: CNc1c2ccccc2nc2occ(Cl)c12
TGI: > 100 µM

Request: Param item = Cc1cccc2c(=O)c3cccc([C@H](C)C(=O)O)c3oc12 ; retrieve measured TGI.
Result: > 100 µM

Request: Lookup Cc1cc(NS(=O)(=O)c2ccc(NC(=O)c3ccc(Cl)c4c(Nc5ccc(S(=O)(=O)Nc6cc(C)on6)cc5)c5ccccc5nc34)cc2)no1
Result: 41.4 µM

Request: Lookup OCc1c(-c2cccs2)oc(-c2cccs2)c1CO
Result: > 100 µM

Request: Lookup CC(C)(C)OC(=O)NC(CSCc1ccc(C(=O)c2ccccc2)cc1)C(=O)N1CCN(CCCCN2c3ccccc3Sc3cc(N=[N+]=[N-])ccc32)CC1 (stereo unspecified)
Result: > 100 µM

Request: Lookup O=C1CCCC2=C1CC1=C(CCCC1=O)N2c1ccc(Cl)cc1
Result: > 100 µM

Request: Lookup Nc1nnc(N)n1N
Result: > 100 µM

Request: Lookup O=C1NC(c2ccccc2)(c2ccccc2)C(=O)N1CCCCCCN1C(=O)NC(c2ccccc2)(c2ccccc2)C1=O
Result: > 100 µM

Request: Lookup COc1ccccc1/C=C1\C(=O)N(C(=O)Cc2ccccc2)N=C1C
Result: > 100 µM

Request: Lookup O=C1OC(C(O)CO)C(C(O)CO)OC1=O (stereo unspecified)
Result: > 10 µM

Values were extracted from PubChem BioAssay (NCI).
